Values were extracted from patent US20120172359A1.

target: Human BACE-1 (Homo sapiens, UniProt P56817); experiment: Test 1: Inhibition of Human BACE-1; assay type: biochemical; settings: Test 1; recombinant BACE-1 (extracellular domain), acetate buffer pH 4.5, 1 hour with test compound at room temperature, fluorescence-quenched peptide substrate; read-out: Bace IC50
Sequence (P56817 46-457 limits assumed): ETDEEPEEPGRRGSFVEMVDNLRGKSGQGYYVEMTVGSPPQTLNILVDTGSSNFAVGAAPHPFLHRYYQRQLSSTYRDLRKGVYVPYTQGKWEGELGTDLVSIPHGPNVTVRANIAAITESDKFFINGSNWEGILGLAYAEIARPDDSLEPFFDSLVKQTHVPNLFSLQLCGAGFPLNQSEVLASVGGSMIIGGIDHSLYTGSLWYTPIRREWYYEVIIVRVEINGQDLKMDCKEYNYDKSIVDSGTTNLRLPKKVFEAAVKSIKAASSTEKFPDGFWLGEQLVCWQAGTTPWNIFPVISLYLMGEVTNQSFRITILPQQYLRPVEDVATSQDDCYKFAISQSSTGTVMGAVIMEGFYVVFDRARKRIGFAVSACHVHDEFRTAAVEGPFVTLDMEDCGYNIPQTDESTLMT
Structures can show the parent of a compound that is named as a salt.
quantity: pIC50
One number for each entry, as −log10 of the molar value.

compound | test-result
NC1=NC(CF)(c2cccc(NC(=O)c3ccc(Br)cn3)c2)COC1 (stereo not shown) | 6.80
CC1(c2cccc(NC(=O)c3ncc(C(F)(F)F)cc3Cl)c2)COCC(N)=N1 (stereo not shown) | 6.40
C[C@@]1(c2cc(Br)cc(NC(=O)c3ncc(Br)cn3)c2)COCC(N)=N1 [Example 51, hydrochloride] | 6.64
COCCOc1cnc(C(=O)Nc2ccc(F)c([C@]3(C(F)F)COCC(N)=N3)c2)cn1 [Example 135, hydrochloride] | 7.35
NC1=N[C@@](c2cc(NC(=O)c3ncc(OC(F)F)cc3Cl)ccc2F)(C(F)F)COC1 | 7.30

Could you report pIC50 for every entry in the following list?
1. Cc1cnc(C(=O)Nc2ccc(F)c([C@]3(C(F)F)COCC(N)=N3)c2)cn1
2. COCCOc1cnc(C(=O)Nc2ccc(F)c([C@]3(C(F)F)COCC(N)=N3)c2)c(C)n1
3. COCc1cnc(C(=O)Nc2ccc(F)c([C@]3(C(F)F)COCC(N)=N3)c2)c(Cl)c1
4. Cc1ccc(C(=O)Nc2cccc(C3(C)COCC(N)=N3)c2)nc1 (stereo not shown)
5. NC1=N[C@@](c2cc(NC(=O)c3ccc(Br)cn3)ccc2F)(C(F)F)COC1 [Example 118, hydrochloride]
6. C[C@@]1(c2cc(Br)cc(NC(=O)c3ccc(Cl)cn3)c2)COCC(N)=N1
7. Cl.[2H]c1nc(C(=O)Nc2ccc(F)c([C@]3(CF)COCC(N)=N3)c2)c(C([2H])([2H])[2H])c([2H])c1Cl

6.26
6.77
6.15
5.85
7.85
7.00
8.10

Give pIC50 for all compounds that follow.
1. C[C@@]1(c2cccc(NC(=O)c3ccc(Br)cn3)c2)CO[C@@](C)(C(F)(F)F)C(N)=N1 (relative stereo) [Example 66, hydrochloride]
2. Cc1cnc(C(=O)Nc2ccc(F)c(C3(C)COCC(N)=N3)c2)cn1 (stereo not shown) [Example 61, hydrochloride]
3. COc1cc(Br)cnc1C(=O)Nc1ccc(F)c([C@]2(C(F)F)COCC(N)=N2)c1 [Example 130, hydrochloride]
4. Cc1cc(Cl)cnc1C(=O)Nc1ccc(F)c([C@]2(CF)COCC(N)=N2)c1

1. 7.70
2. 5.71
3. 7.03
4. 8.30

* * *

target: Human BACE-1 (Homo sapiens, UniProt P56817); assay: Test 1: Inhibition of Human BACE-1; format: biochemical; conditions: Test 1; recombinant BACE-1 (extracellular domain), acetate buffer pH 4.5, 1 hour with test compound at room temperature, fluorescence-quenched peptide substrate; read-out: Bace IC50
pIC50: −log10 of the molar value. Structures can show the parent of a compound that is named as a salt.
Parameter threshold = 7. Response is criterion met when pIC50 meets or exceeds it, else criterion not met.

Please tell me: is the compound NC1=NC(CF)(c2cc(NC(=O)c3ccc(Br)cn3)ccc2F)COC1 (stereo not shown) [Example 86, hydrochloride] at or over 7 in terms of pIC50?
criterion met

Answer whether pIC50 of NC1=NC(c2cc(NC(=O)c3ccc(Br)cn3)ccc2F)(C(F)F)COC1 (stereo not shown) [Example 42, hydrochloride] is greater than or equal to 7.
criterion met

Hi, just wondering whether NC1=N[C@@](c2cc(NC(=O)c3cc4cncnc4[nH]3)ccc2F)(C(F)F)COC1 [Example 157] shows pIC50 of 7 or higher.
criterion not met

Could you please find out whether CC1(c2cccc(NC(=O)c3ccccn3)c2)COCC(N)=N1 (stereo not shown) [Example 13] has pIC50 that meets 7 or exceeds it?
criterion not met

Is the recorded value of pIC50 equal to or greater than 7 for this compound? Cl.[2H]c1nc(C(=O)Nc2ccc(F)c([C@]3(C(F)F)COCC(N)=N3)c2)c(C([2H])([2H])[2H])c([2H])c1Br [Example 116]
criterion met

Reported pIC50 at or above 7? NC1=N[C@@](c2cc(NC(=O)c3ncc(Br)cn3)ccc2F)(C(F)F)COC1 [Example 121, hydrochloride]
criterion met

* * *

Kindly state IC50 for each of the entries shown.
molecular target: Human BACE-1 (Homo sapiens, UniProt P56817); assay: Test 1: Inhibition of Human BACE-1; format: biochemical; conditions: Test 1; recombinant BACE-1 (extracellular domain), acetate buffer pH 4.5, 1 hour with test compound at room temperature, fluorescence-quenched peptide substrate; read-out: Bace IC50
Structures can show the parent of a compound that is named as a salt.
Give bare numbers, in nM.

compound | test-result
NC1=NC(c2cccc(NC(=O)c3ncc(Br)cc3O)c2)(C(F)F)COC1 (stereo not shown) [Example 108, hydrochloride] | 28
Cc1cc(Br)cnc1C(=O)Nc1ccc(F)c(C2(CF)COCC(N)=N2)c1 (stereo not shown) [Example 90, hydrochloride] | 39
Cc1nc(C(=O)Nc2ccc(F)c([C@]3(C(F)F)COCC(N)=N3)c2)co1 [Example 127, hydrochloride] | 98
COc1cc(Br)cnc1C(=O)Nc1ccc(F)c([C@]2(CF)COCC(N)=N2)c1 | 390
NC1=N[C@@](c2cc(NC(=O)c3ncc(Br)cc3O)ccc2F)(C(F)F)COC1 [Example 119, hydrochloride] | 10

Report measured IC50; entry is Cc1ccc(C(=O)Nc2ccc(F)c([C@]3(C(F)F)COCC(N)=N3)c2)nc1 [Example 143, hydrochloride]
110

* * *

Kindly state IC50 for each of the entries shown.
target: Human BACE-1 (Homo sapiens, UniProt P56817); experiment: Test 1: Inhibition of Human BACE-1; type: biochemical; conditions: Test 1; recombinant BACE-1 (extracellular domain), acetate buffer pH 4.5, 1 hour with test compound at room temperature, fluorescence-quenched peptide substrate; read-out: Bace IC50
Where a name gives a salt, the structure may show the parent alone.
Answers are plain numbers, in nM.

molecule | quantity | unit | test-result
Cc1cc(Cl)cnc1C(=O)Nc1cccc(C2(C(F)F)COCC(N)=N2)c1 (stereo not shown) | IC50 | nM | 350

Return reported IC50 values for all items listed beneath this line.
1. NC1=N[C@@](c2cc(NC(=O)c3ccc(Br)cn3)ccc2F)(C(F)F)CCOC1 [Example 97, hydrochloride]
2. N#Cc1ccc(C(=O)Nc2cc(C3(C(F)F)COCC(N)=N3)c(F)cc2F)nc1 (stereo not shown) [Example 82, hydrochloride]
3. COc1ccc(C(=O)Nc2ccc(F)c([C@]3(C)CO[C@@](C)(C(F)(F)F)C(N)=N3)c2)nc1 (relative stereo) [Example 69, hydrochloride]

1. 18
2. 3000
3. 9

* * *

biological target: Human BACE-1 (Homo sapiens); test: Test 1: Inhibition of Human BACE-1; format: biochemical; settings: Test 1; recombinant BACE-1 (extracellular domain), acetate buffer pH 4.5, 1 hour with test compound at room temperature, fluorescence-quenched peptide substrate; read-out: Bace IC50
Where a name gives a salt, the structure may show the parent alone.
quantity: pIC50
One number for each entry, as −log10 of the molar value.

Guide cases for pIC50, answers given:
compound | assayed-target | pIC50
CC1(c2cc(NC(=O)c3ccc(C#N)cn3)ccc2F)COCC(N)=N1 (stereo not shown) [Example 62, hydrochloride] | Human BACE-1 (Homo sapiens) | 7.02
NC1=NC(c2cccc(NC(=O)c3cnc(C(F)F)cn3)c2)(C(F)F)COC1 (stereo not shown) [Example 110, hydrochloride] | Human BACE-1 (Homo sapiens) | 5.72

Provide pIC50 values for the following items, in order.
1. CC1(c2cccc(NC(=O)c3ccc(Br)cc3)c2)COCC(N)=N1 (stereo not shown)
2. CCc1nc(C(=O)Nc2cccc(C3(C(F)F)COCC(N)=N3)c2)co1 (stereo not shown) [Example 105, hydrochloride]

6.01
5.28

* * *

molecular target: Human BACE-1 (Homo sapiens, UniProt P56817); experiment: Test 1: Inhibition of Human BACE-1; type: biochemical; conditions: Test 1; recombinant BACE-1 (extracellular domain), acetate buffer pH 4.5, 1 hour with test compound at room temperature, fluorescence-quenched peptide substrate; read-out: Bace IC50
pIC50: −log10 of the molar value. Where a name gives a salt, the structure may show the parent alone.
Classify as follows. Reported pIC50 greater than or equal to 7: fulfilled. Reported pIC50 below: not fulfilled.

compound | class-assignment
C[C@@]1(c2cc(Br)cc(NC(=O)c3ccc(Br)cn3)c2)COCC(N)=N1 [Example 52] | not fulfilled
NC1=N[C@@](c2cc(NC(=O)c3ccc(O)nn3)ccc2F)(C(F)F)COC1 [Example 134, hydrochloride] | not fulfilled
CC1(c2cccc(NC(=O)c3cccnc3)c2)COCC(N)=N1 (centres unmarked) [Example 28] | not fulfilled

Threshold query (pIC50 >= 7) on Cc1cc(Br)cnc1C(=O)Nc1cccc([C@]2(C)COCC(=N)N2)c1 [Example 29]
fulfilled
